- assay method text: Stability of compound in PBS at pH 7.4 assessed as parent compound remaining at 10 uM measured after 1 hrs in presence of GSH by RP-HPLC analysis
- Assay type: physicochemical
- condition parameters: PBS with GSH, read-out: Stability
Reported remaining at 1 h, 10 µM values follow for various compounds
measured property: remaining at 1 h, 10 µM

>>> observed_result("CC(=O)N[C@@H](CCCNC(=N)N)C(=O)N[C@@H](C)C(=O)N[C@@H]1CSSC(C)(C)[C@@H](C(=O)O)NC(=O)[C@H](Cc2cnc[nH]2)NC(=O)[C@H](Cc2ccc3ccccc3c2)NC(=O)[C@H](CCCNC(=N)N)NC1=O")
"88%"
>>> observed_result("CC(=O)N[C@@H](CCCNC(=N)N)C(=O)N[C@@H](C)C(=O)N[C@H]1CNC(=O)CC[C@@H](C(=O)O)NC(=O)[C@H](Cc2c[nH]cn2)NC(=O)[C@H](Cc2ccc3ccccc3c2)NC(=O)[C@H](CCCNC(=N)N)NC1=O")
"100%"
